protocol-summary: qHTS profiling of the MIPE4 collection as inhibitors of Plasmodium falciparum (DD2) proliferation (Rep 2) (AID 743346)
measurement-context: P. falciparum Dd2 in erythrocytes, SYBR Green DNA, 72 h; at 28.5 µM unless noted
Class field: derived from parasite growth, % of control (lower = inhibition); ranges Low = under 10%, Medium = from 10% up to 60%, High = 60% and over

[[record]]
compound = "Cc1noc(-c2ccc(CSCCC(=O)O)cc2)c1NC(=O)OC(C)c1ccccc1Cl (configuration not stated)"
class = "Medium"

[[record]]
compound = "c1cc(N[C@@H]2CCNC2)nc(-c2cnc3ccc(-c4cn[nH]c4)cn23)c1"
class = "Low"

[[record]]
compound = "CC(=O)N[C@@H]1[C@H](O[C@@H]2c3ccc(c(Cl)c3)Oc3cc4cc(c3O[C@H]3O[C@H](CO)[C@@H](O)[C@H](O)[C@H]3NC(=O)CCCCCCCC(C)C)Oc3ccc(cc3Cl)C[C@H]3NC(=O)[C@H](N)c5ccc(O)c(c5)Oc5cc(O)cc(c5)[C@H](NC3=O)C(=O)N[C@H]4C(=O)N[C@H]3C(=O)N[C@@H]2C(=O)N[C@@H](C(=O)O)c2cc(O)cc(O[C@H]4O[C@H](CO)[C@@H](O)[C@H](O)[C@H]4O)c2-c2cc3ccc2O)O[C@H](CO)[C@@H](O)[C@@H]1O"
class = "High"

[[record]]
compound = "CC(C=CC(=O)NO)=C[C@@H](C)C(=O)c1ccc(N(C)C)cc1"
class = "Low"

[[record]]
compound = "Cc1cc(-c2nnc3n2CCCCC3)c(C)n1-c1ccccc1"
class = "Medium"

[[record]]
compound = "CC(C)c1cc(C(C)C)c(CC(=O)NS(=O)(=O)Oc2c(C(C)C)cccc2C(C)C)c(C(C)C)c1"
class = "High"

[[record]]
compound = "FC(F)c1nc2ccccc2n1-c1nc(N2CCOCC2)nc(N2CCOCC2)n1"
class = "Low"

[[record]]
compound = "Cc1ncc(-c2ccnc(Nc3ccc(S(C)(=O)=O)cc3)n2)n1C(C)C"
class = "Medium"

[[record]]
compound = "C[C@H](O)[C@@H]1C(=O)N2C(C(=O)O)=C(S[C@@H]3CN[C@H](CNS(N)(=O)=O)C3)[C@@H](C)[C@@H]12"
class = "High"

[[record]]
compound = "Nc1nc(N)c2nc(-c3cccc(O)c3)c(-c3cccc(O)c3)nc2n1"
class = "Medium"

[[record]]
compound = "O=C1NC(=O)C(=Cc2ccc3nccc(-c4ccncc4)c3c2)S1"
class = "Low"

[[record]]
compound = "COC(=O)C1C2CC3c4[nH]c5cc(OC)ccc5c4CCN3CC2CC(OC(=O)c2cc(OC)c(OC)c(OC)c2)C1OC (configuration not stated)"
class = "Medium"

[[record]]
compound = "C=CC(=O)Nc1cccc(Nc2nc(NC3CCC(N(C)C)CC3)nc3c2ncn3C(C)C)c1 (configuration not stated)"
class = "Medium"

[[record]]
compound = "CC(C)N1[N]C(=C2C=c3cc(O)ccc3=N2)c2c(N)ncnc21"
class = "Medium"

[[record]]
compound = "C[C@H](NC(=O)Cc1cc(F)cc(F)c1)C(=O)N[C@H](C(=O)OC(C)(C)C)c1ccccc1"
class = "High"

[[record]]
compound = "CC(=O)OCC(=O)[C@@]1(O)CC[C@H]2[C@@H]3CCC4=CC(=O)CC[C@]4(C)[C@@H]3C(=O)C[C@@]21C"
class = "High"

[[record]]
compound = "CN(C)c1ccc2cc(C(=O)N[C@@H](CCCN=C(N)CCl)C(=O)NCc3ccccc3)ccc2c1"
class = "Low"

[[record]]
compound = "CC(=O)NC(CS)C(=O)O (configuration not stated)"
class = "High"

[[record]]
compound = "C=CC1=C(C(=O)O)N2C(=O)[C@@H](NC(=O)C(=NO)c3csc(N)n3)[C@H]2SC1"
class = "High"

[[record]]
compound = "CCc1cc(C(C)=NOCc2ccc(C3CCCCC3)c(C(F)(F)F)c2)ccc1CN1CC(C(=O)O)C1"
class = "Medium"

[[record]]
compound = "N#CC(=Cc1ccc(O)c(O)c1)C(=O)NCc1ccccc1"
class = "Medium"

[[record]]
compound = "CC[C@H]1OC(=O)[C@H](C)[C@@H](O[C@H]2C[C@@](C)(OC)[C@@H](O)[C@H](C)O2)[C@H](C)[C@@H](O[C@@H]2O[C@@H](C)C[C@H](N(C)C)[C@@H]2O)[C@](C)(O)C[C@@H](C)C(=O)[C@H](C)[C@@H](O)[C@]1(C)O"
class = "Medium"

[[record]]
compound = "N#Cc1ccc(COC[C@H]2O[C@@H](n3c(NCc4ccc(Cl)c(Cl)c4)nc4c(N)ncnc43)[C@@H](O)[C@@H]2O)cc1"
class = "Medium"

[[record]]
compound = "CC(C)(C)c1nc2c3cc[nH]c(=O)c3c3cc(F)ccc3c2[nH]1"
class = "High"

[[record]]
compound = "CN(C)CCN1C(=O)c2cccc3cc(N)cc(c23)C1=O"
class = "Medium"

[[record]]
compound = "CC[C@H]1OC(=O)[C@H](C)[C@@H](O[C@H]2C[C@@](C)(OC)[C@@H](O)[C@H](C)O2)[C@H](C)[C@@H](O[C@@H]2O[C@H](C)C[C@H](N(C)C)[C@@H]2O)[C@](C)(OC)C[C@@H](C)C(=O)[C@H](C)[C@@H](O)[C@]1(C)O"
class = "High"

[[record]]
compound = "Cn1cnc(=N)c2[nH]cnc21"
class = "Low"

[[record]]
compound = "O=c1c(O)c(-c2ccc(O)c(O)c2)oc2cc(O)ccc12"
class = "Medium"

[[record]]
compound = "CC(C)NC[C@@H](C(=O)N1CCN(c2ncnc3c2[C@H](C)C[C@H]3O)CC1)c1ccc(Cl)cc1"
class = "Low"

[[record]]
compound = "CCCc1nc(C(C)(C)O)c(C(=O)O)n1Cc1ccc(-c2ccccc2-c2nn[nH]n2)cc1"
class = "High"


====

protocol-summary: Quantitative High-Throughput drug screen in 47 multiple myeloma cell lines against the NCATS MIPE library collection: OPM2_DSMZ cell viability assay (AID 1919872); also: nearly all actives have a fitted effect of over 30% in size
measurement-context: OPM2 myeloma viability, CellTiter-Glo ATP luminescence, 48 h; series mostly up to 45.8 µM
Records with an inconclusive call do not appear. Active and inactive are the calls of the source. Calls follow the shape of the dose curve; as a rule, active = well fitted cell-killing curve with a large enough effect; inconclusive = small, poorly fitted or top-dose-only effect, or effect the other way; inactive = no such curve, though single readings can be large or run the other way.
Outcomes: active, inactive

[[record]]
compound = "OCc1ccccc1O[C@@H]1O[C@H](CO)[C@H](O)[C@H](O)[C@H]1O"
class = "inactive"

[[record]]
compound = "NC(=O)c1cccc(-c2cccc(OC(=O)NC3CCCCC3)c2)c1"
class = "inactive"

[[record]]
compound = "COc1cc(C[C@@H](CO)[C@H](CO)Cc2ccc(O)c(OC)c2)ccc1O"
class = "inactive"

[[record]]
compound = "Cc1nc(NC(=O)N2CCC[C@@H]2C(N)=O)sc1-c1ccnc(C(C)(C)C(F)(F)F)c1"
class = "active"

[[record]]
compound = "NC(=O)Nc1cc(-c2ccc(CN3CCOCC3)cc2)sc1C(N)=O"
class = "active"

[[record]]
compound = "CC(C)Oc1ccc(C(=O)N[C@H](CNC(=O)CN(C)C)Cc2ccc(-c3cn4cccc([C@H](C)O)c4n3)cc2)cc1Cl"
class = "active"

[[record]]
compound = "CC(C)(O)Cn1c(NC(=O)c2ccc(-c3cn[nH]c3)s2)nc2cc(CN3CCOCC3)ccc21"
class = "active"

[[record]]
compound = "CN(CC(=O)N(Cc1ccc(C2CCCCC2)cc1)c1ccc(C(=O)O)c(O)c1)S(=O)(=O)c1c(F)c(F)c(F)c(F)c1F"
class = "active"

[[record]]
compound = "C[C@H](CCC(=O)O)[C@H]1CCC2C3C[C@H](O)[C@@H]4C[C@H](O)CC[C@]4(C)C3CC[C@@]21C (some centres undefined)"
class = "inactive"


====

protocol-summary: qHTS of pediatric cancer cell lines to identify multiple opportunities for drug repurposing: Confirmatory screen for RD cells (AID 1347124);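 also: cells exposed to compound for 48 h before viability readout; nearly all actives have a fitted effect of over 65% in size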
measurement-context: RD rhabdomyosarcoma cell viability; series mostly up to 45.9 µM
Inconclusive results are not listed. Calls of active or inactive are those of the source. Calls follow the shape of the dose curve; as a rule, active = well fitted cell-killing curve with a large enough effect; inconclusive = small, poorly fitted or top-dose-only effect, or effect the other way; inactive = no such curve, though single readings can be large or run the other way.
Labels: active, inactive

[[record]]
smi = "FC(F)c1nc2ccccc2n1-c1nc(N2CCOCC2)nc(N2CCOCC2)n1"
class = "active"

[[record]]
smi = "COC(=O)[C@@H]1[C@H]2C[C@@H]3c4[nH]c5ccccc5c4CCN3C[C@@H]2CC[C@@H]1O"
class = "inactive"

[[record]]
smi = "O=C1NC(=O)C(=Cc2ccc3nccc(-c4ccncc4)c3c2)S1"
class = "active"

[[record]]
smi = "COc1ccc(S(=O)(=O)Nc2cccnc2Nc2ccc(O)cc2)cc1"
class = "active"

[[record]]
smi = "N#CNC(=NCCCCCCOc1ccc(Cl)cc1)Nc1ccncc1"
class = "active"

[[record]]
smi = "C=C1C(=CC=C2CCC[C@]3(C)[C@@H]([C@H](C)CCCC(C)(C)O)CC[C@@H]23)C[C@@H](O)C[C@@H]1O"
class = "inactive"

[[record]]
smi = "COc1ccc(Nc2cc(-c3cnc(N)nc3)nc(N3CCOCC3)n2)cn1"
class = "active"

[[record]]
smi = "CCc1cc(C(C)=NOCc2ccc(C3CCCCC3)c(C(F)(F)F)c2)ccc1CN1CC(C(=O)O)C1"
class = "inactive"

[[record]]
smi = "Cc1ccc([N+](=O)[O-])cc1S(=O)(=O)N(C)N=Cc1cnc2ccc(Br)cn12"
class = "active"

